Where do the numbers come from? From paper PMC5421785.

# Tested system: HLA-DRB1*04:01 (Homo sapiens, UniProt P01903+P01911, A100K/A169T/F76Y/I96L/K127E/L162R/M171V/N62H/P40V/Q125Y/R42H/S133A/S149N/S66Y/V115G/V209L/W38E)
# Construct: EBV transformed homozygous cell lines were used as sources of MHC molecules; endogenous in cells; host or cells: EBV transformed homozygous cell lines
# Protocol description: HLA class II peptide binding, inhibition of radiolabeled peptide binding to purified MHC
# Measurement setup: citrullinated 15-mer peptide (X = citrulline); purified HLA-DRB1*04:01; read-out: DRB1*04:01 binding capacity, Cit peptide (IC50 nM)
Square brackets hold non-standard residues; d marks the D form. Peptide text beside a SMILES is read from it. Cit = NC(=O)NCCC[C@H](N)C(=O)O
Reported IC50 values follow for various compounds

| Compound | IC50 |
| --- | --- |
| N=C(N)NCCC[C@H](NC(=O)[C@H](CCC(=O)O)NC(=O)CNC(=O)[C@H](CCCNC(N)=O)NC(=O)[C@@H]1CCCN1C(=O)CN)C(=O)NCC(=O)N[C@@H](Cc1ccccc1)C(=O)N1CCC[C@H]1C(=O)NCC(=O)N[C@@H](CCC(=O)O)C(=O)N[C@@H](CCCNC(=N)N)C(=O)NCC(=O)N[C@@H](CO)C(=O)N1CCC[C@H]1C(=O)O [GPXGERGFPGERGSP] (H-GP[Cit]GERGFPGERGSP-OH) | > 40000 nM |
| CC(C)C[C@H](NC(=O)CNC(=O)[C@H](CCCNC(=N)N)NC(=O)[C@H](C)NC(=O)CNC(=O)[C@@H]1CCCN1C(=O)[C@@H](N)CC(C)C)C(=O)N[C@H](C(=O)NCC(=O)N[C@@H](CCCNC(N)=O)C(=O)N1CCC[C@H]1C(=O)NCC(=O)N[C@@H](CC(=O)O)C(=O)N[C@@H](C)C(=O)NCC(=O)O)[C@@H](C)O [LPGARGLTGXPGDAG] (H-LPGARGLTG[Cit]PGDAG-OH) | > 40000 nM |
| CC(C)C[C@H](NC(=O)CNC(=O)[C@H](CCCNC(N)=O)NC(=O)[C@@H]1CCCN1C(=O)CNC(=O)[C@@H](N)CCC(N)=O)C(=O)N1CCC[C@H]1C(=O)NCC(=O)N[C@H](C(=O)N1CCC[C@H]1C(=O)NCC(=O)N[C@H](C(=O)N[C@@H](CC(=O)O)C(=O)NCC(=O)N1CCC[C@H]1C(=O)O)[C@@H](C)O)[C@@H](C)O [QGPXGLPGTPGTDGP] (H-QGP[Cit]GLPGTPGTDGP-OH) | > 40000 nM |
